Where do the numbers come from? From PubChem BioAssay.

assay: HepG2 liver cancer cell viability effects, profiling panel, resazurin fluorescence, 24 h, PK04 Diversity Set (AID 1172); details: higher = more signal; note: test concentration not given here
Endpoint name: z-score

{"columns": ["Compound", "Endpoint name", "Numeric result"],
 "data": [
  ["CN(C)CCCC[C@@H]1NC(=O)[C@@H]2C[C@H](C(=O)NCc3ccc(F)cc3)[C@H](c3ccc(O)cc3)N2C1=O", "z-score", -0.188],
  ["COC(=O)c1ccc([C@H](NC(=O)c2ccccc2)[C@]2(C)C[C@H]2C2CCCCC2)cc1", "z-score", 0.38],
  ["COC(=O)[C@@]1(Cc2ccccc2)[C@@H]2[C@@H](CC(=O)[C@H]2CC(=O)C(=O)N(C)C)CN1C(=O)c1ccccc1", "z-score", 0.166],
  ["CC(C)C[C@@H]1NC(=O)[C@@]23C(=O)N[C@@H](Cc4ccccc4)C2[C@H](C)[C@@]2(C)O[C@H]2C3/C=C/C/C=C\\CNC(=O)[C@@H](CC(C)C)NC1=O (stereo partly drawn)", "z-score", 0.175],
  ["CC(=O)n1cc(C(O)C2C=CC3C(=O)N(c4ccccc4)C(=O)C3N2Nc2ccccc2F)c2ccccc21 (stereo not drawn)", "z-score", 0.68],
  ["COc1cc(OC)c(C(O)C2C=CC3C(=O)N(c4ccccc4)C(=O)C3N2Nc2ccccc2F)cc1Br (stereo not drawn)", "z-score", -0.384],
  ["CC(C)CNC(=O)[C@@H]1c2ccccc2C(=O)N(C2Cc3ccccc3C2)[C@H]1c1ccc(CO)cc1", "z-score", 0.98],
  ["CCCCCCCCCCC(O)C1C=CC2C(=O)N(C)C(=O)C2N1N1CCCCC1 (stereo not drawn)", "z-score", -1.36]
]}

* * *

molecular target: NADPH oxidase 2 (Homo sapiens); assay: NOX2-dependent H2O2 signal modulators, primary screen, NOX inhibitor project, cell-based, HEK293-NOX2, PMA-stimulated, Amplex Red fluorescence (AID 1159); conditions: 45 min, higher = more signal, called active from +8 up or from −8 down; note: test concentration not given here

{"columns": ["Molecule", "z-score"],
 "data": [
  ["CN1C(=O)[C@]2(CCS(=O)(=O)c3ccccc3)N=C(c3ccc(OCCCO)cc3)O[C@@H]2c2ccccc21", 0.276],
  ["CCCC[C@H]1OB(O)C[C@H]2C1=C(COC)C[C@H]1C(=O)C=CC(=O)[C@H]12", -0.235],
  ["COCCOC(=O)N1C(=O)[C@@]2(c3cc(C#Cc4ccc(OC)cc4)ccc31)[C@H](c1ccc(OCCO)cc1)N1[C@H](c3ccccc3)[C@H](c3ccccc3)OC(=O)[C@H]1[C@@H]2C(=O)N1CCCCCCC1", 0.928],
  ["C=CCC(OC(C)=O)[C@@H]1[C@@H](N(Cc2cccc3ccccc23)C(=O)c2ccc(-c3ccccc3)cc2)c2cc(OCCCO)ccc2N1C(=O)c1ccc2ccccc2n1 (some centres not stated)", -0.0242],
  ["COCC1=C([C@H](O)CCc2ccccc2)[C@H](CO)n2c(=O)n(-c3ccccc3)c(=O)n2C1", -0.638],
  ["COc1ccc([Si](C)(C)[C@H]2[C@H](CCn3cc([C@H](O)c4ccccc4)nn3)O[C@@]3(C(=O)N(C)c4c(Br)cc(C)cc43)[C@@H]2C)cc1", 0.276],
  ["COCCCNC(=O)[C@@H]1c2ccccc2C(=O)N(Cc2cc(C(F)(F)F)cc(C(F)(F)F)c2)[C@H]1c1ccc(CO)cc1", 0.175]
]}

* * *

biological target: Epidermal growth factor receptor (Homo sapiens); test: EGFR binders on small-molecule microarrays, primary screen, biochemical, small-molecule microarray, 635 nm fluorescence (AID 1104); settings: EGFR binding, higher = more signal;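 note: score merges 667 nm emission intensity with spot signal to noise over triplicate slides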
Listed below: composite z-score values for each entry.

{"columns": ["Compound", "composite z-score"],
 "data": [
  ["NC(=O)NCC#Cc1ccc2c(c1)[C@]1(C(=O)N2)[C@H](C(=O)Nc2nc3ccccc3s2)[C@H]2C(=O)O[C@H](c3ccccc3)[C@H](c3ccccc3)N2[C@@H]1c1ccc(OCCO)cc1", 0.0294],
  ["N#Cc1ccc(C(O)C2C=CC3C(=O)NC(=O)C3N2Nc2ccccn2)cc1 (centres undefined)", 0.362],
  ["NC(=O)NCC#Cc1ccc2c(c1)[C@]1(C(=O)N2)[C@H](C(=O)N2CCCCCCC2)[C@H]2C(=O)O[C@H](c3ccccc3)[C@H](c3ccccc3)N2[C@@H]1c1ccc(O)cc1", 1.27],
  ["CCCC[C@H]1OB(O)C[C@H]2C1=C(COC)C[C@H]1C(=O)C=CC(=O)[C@H]12", 0.645]
]}

* * *

Listed below: composite z-score values for each entry.
target: Albumin (Bos taurus) (UniProt P02769); test: bovine serum albumin binders on microarray, profiling panel, artefact control for SMM control protein annotation, biochemical, small-molecule microarray, Alexa647 label, 635/667 nm fluorescence (AID 1118); conditions: BSA-A647 binding, fluorescence 635 nm, higher = more signal;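 note: score merges 667 nm emission intensity and signal-to-noise per printed compound spot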
Sequence (P02769 whole entry, looked up): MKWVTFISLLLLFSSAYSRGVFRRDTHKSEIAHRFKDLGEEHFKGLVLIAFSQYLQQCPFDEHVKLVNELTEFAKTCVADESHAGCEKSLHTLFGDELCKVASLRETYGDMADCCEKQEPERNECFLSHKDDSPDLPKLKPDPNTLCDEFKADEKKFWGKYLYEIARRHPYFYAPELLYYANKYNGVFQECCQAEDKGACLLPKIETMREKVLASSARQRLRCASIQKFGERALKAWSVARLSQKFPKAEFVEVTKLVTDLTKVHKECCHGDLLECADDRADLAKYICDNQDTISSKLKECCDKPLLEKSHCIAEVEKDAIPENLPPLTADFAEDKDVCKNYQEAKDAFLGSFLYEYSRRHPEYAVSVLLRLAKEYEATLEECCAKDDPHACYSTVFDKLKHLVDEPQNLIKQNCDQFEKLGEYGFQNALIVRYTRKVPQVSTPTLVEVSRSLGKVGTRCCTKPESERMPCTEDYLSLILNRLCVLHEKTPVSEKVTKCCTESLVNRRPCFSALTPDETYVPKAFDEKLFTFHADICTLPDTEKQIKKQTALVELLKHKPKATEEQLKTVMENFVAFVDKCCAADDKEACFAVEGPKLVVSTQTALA

{"columns": ["Compound", "Target of assay", "composite z-score"],
 "data": [
  ["CC(c1ccccc1)C(O)C1C=CC2C(=O)N(c3ccccc3)C(=O)C2N1Nc1ccc(C#N)cc1 (stereo not drawn)", "Albumin (Bos taurus) (UniProt P02769)", 0.976],
  ["COc1ccc(NN2C(C(O)c3cc(C(F)(F)F)cc(C(F)(F)F)c3)C=CC3C(=O)N(C4CCCCC4)C(=O)C32)cc1 (stereo not drawn)", "Albumin (Bos taurus) (UniProt P02769)", 0.771],
  ["COc1ccc([Si](C)(C)[C@@H]2[C@@H](CC(=O)N(CCO)Cc3ccccc3)O[C@]3(C(=O)N(Cc4ccc(N5CCC5=O)cc4)c4ccccc43)[C@H]2C)cc1", "Albumin (Bos taurus) (UniProt P02769)", 0.212],
  ["COCCOC(=O)N1C(=O)[C@@]2(c3cc(C#CC4=CCCCC4)ccc31)[C@H](c1ccccc1OCCO)N1[C@H](c3ccccc3)[C@H](c3ccccc3)OC(=O)[C@H]1[C@@H]2C(N)=O", "Albumin (Bos taurus) (UniProt P02769)", -0.0123],
  ["CCCCN1CC=CC23O[C@@H]4/C=C\\CCC(C)OC(=O)C4[C@H]2C(=O)N(C(C)CO)[C@@H]3C1=O (stereo partly drawn)", "Albumin (Bos taurus) (UniProt P02769)", -1.58],
  ["CCC[C@@H]1C=C(C(=O)OCC)[C@H](c2ccccc2)N1S(=O)(=O)c1ccc(C)cc1", "Albumin (Bos taurus) (UniProt P02769)", 0.854],
  ["CC(C)C[C@@H]1NC(=O)[C@@]23C(=O)N[C@@H](Cc4ccccc4)C2[C@H](C)[C@@]2(C)O[C@H]2C3/C=C/C/C=C\\CNC(=O)[C@@H](CC(C)C)NC1=O (stereo partly drawn)", "Albumin (Bos taurus) (UniProt P02769)", 0.757],
  ["CCC[C@@H]1[C@@H](Sc2ccccc2)[C@@H](C(=O)O)[C@H](c2ccc(C)cc2)N1S(=O)(=O)c1ccc(C)cc1", "Albumin (Bos taurus) (UniProt P02769)", 0.771],
  ["COC(=O)[C@]1(CO)N=C(c2ccc(OCCCO)cc2)O[C@@H]1c1ccccc1CN=[N+]=[N-]", "Albumin (Bos taurus) (UniProt P02769)", -0.421],
  ["C=C(CCCC)/C(=C/C[C@H](OC(C)=O)c1cccc(OCCO)c1)c1cc(C(=O)OC)ccc1OC", "Albumin (Bos taurus) (UniProt P02769)", 0.387],
  ["COCCOC(=O)N1C(=O)[C@@]2(c3cc(C#CCCO)ccc31)[C@H](C(=O)N1CCN(c3ncccn3)CC1)[C@H]1C(=O)O[C@H](c3ccccc3)[C@H](c3ccccc3)N1[C@@H]2c1ccc(O)cc1", "Albumin (Bos taurus) (UniProt P02769)", 0.506],
  ["COCCOC(=O)N1C(=O)[C@@]2(c3cc(C#CCC(C(=O)OC)C(=O)OC)ccc31)[C@H](C(=O)N1CCCCCCC1)[C@H]1C(=O)O[C@H](c3ccccc3)[C@H](c3ccccc3)N1[C@@H]2c1ccccc1OCCO", "Albumin (Bos taurus) (UniProt P02769)", 0.847],
  ["NC(=O)NCC#Cc1ccc2c(c1)[C@]1(C(=O)N2)[C@H](C(=O)N2CCCCCCC2)[C@H]2C(=O)O[C@H](c3ccccc3)[C@H](c3ccccc3)N2[C@@H]1c1ccc(O)cc1", "Albumin (Bos taurus) (UniProt P02769)", 0.408]
]}

* * *

assay: CREB reporter modulators under forskolin, primary screen, cell-based, PC12, CRE-LacZ reporter, forskolin-stimulated (AID 1146); settings: luminescence, 4.5 h, called active from +8 up or from −8 down;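 note: PC12 cells with 6xCRE LacZ reporter stimulated by forskolin 10 µM; beta-galactosidase reporter signal reflecting CREB driven transcription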
The source made the active and inactive calls.
Labels: 1.0 = active, 0.0 = inactive

{"columns": ["Compound", "Classification"],
 "data": [
  ["COCCOC(=O)N1C(=O)[C@@]2(c3cc(C#CC4(O)CCCCCC4)ccc31)[C@H](C(=O)N1CCc3cc(OC)c(OC)cc3C1)[C@H]1C(=O)O[C@H](c3ccccc3)[C@H](c3ccccc3)N1[C@@H]2c1ccc(O)cc1", 1.0],
  ["CC(C)CNC(=O)[C@@H]1c2ccccc2C(=O)N(Cc2ccccc2Cl)[C@H]1c1ccc(CO)cc1", 0.0],
  ["COCCOC(=O)N1C(=O)[C@@]2(c3cc(C#Cc4ccc(OC)cc4)ccc31)[C@H](C(=O)Nc1nc3ccccc3s1)[C@H]1C(=O)O[C@H](c3ccccc3)[C@H](c3ccccc3)N1[C@@H]2c1ccccc1OCCO", 0.0],
  ["COCCCNC(=O)[C@@H]1c2ccccc2C(=O)N(C2CCCCC2)[C@H]1c1ccc(CO)cc1", 0.0],
  ["CCc1cccc(NC(=O)O[C@H]2[C@H](OC(=O)Nc3ccc4c(c3)OCO4)[C@H](OC(=O)Nc3ccc4c(c3)OCO4)[C@@H](OC)O[C@@H]2CO)c1", 0.0],
  ["CC=CC(O)C1C=CC2C(=O)N(C)C(=O)C2N1NC(=O)OC(C)(C)C (stereo not drawn)", 0.0],
  ["CCCC[C@@H]1C[C@H]1[C@@H](NC(=O)Cc1ccccc1)c1ccc(Cl)cc1", 0.0],
  ["C=CCNC(=O)[C@H]1[C@@H]2C(=O)O[C@@H](c3ccccc3)[C@@H](c3ccccc3)N2[C@@H](c2ccc(O)cc2)[C@]12C(=O)Nc1ccc(C#CC3=CCCCC3)cc12", 0.0],
  ["COCCOC(=O)N1C(=O)[C@@]2(c3cc(C#CCC(C(=O)OC)C(=O)OC)ccc31)[C@H](C(N)=O)[C@H]1C(=O)O[C@H](c3ccccc3)[C@H](c3ccccc3)N1[C@@H]2c1ccc(OCCO)cc1", 0.0],
  ["C[N+](C)(C)CCCCCCNC(=O)[C@@H]1C[C@@H]2C(=O)N[C@@H](Cc3ccccc3)C(=O)N2[C@@H]1c1ccc(O)cc1", 0.0],
  ["CO[C@H]1O[C@H](CO)[C@@H](OC(=O)Nc2ccc(C(F)(F)F)cc2)[C@H](OC(=O)Nc2ccccc2-c2ccccc2)[C@@H]1OC(=O)Nc1ccccc1-c1ccccc1", 0.0],
  ["CN1C(=O)[C@]2(CCS(=O)(=O)c3ccccc3)N=C(c3ccc(OCCCO)cc3)O[C@@H]2c2ccccc21", 0.0],
  ["Cc1ccc(S[C@]2(C(=O)NC3CC3)CC(=O)N(Cc3cc(C(F)(F)F)cc(C(F)(F)F)c3)[C@@H]2c2ccc(CO)cc2I)cc1", 0.0]
]}
